# Test system: RXF 393 renal
# procedureDetails: NCI-60 one-dose screen, 48 h (100 = growth as untreated, 0 = no growth, -100 = all killed)
# testParameters: 10 µM unless noted
About 83,000 compounds went through this panel and 20% of them were active in at least one assay; those are over-represented in the sample as a whole.
Answer each item with its documented growth.
Answer format: numeric, % implied, no suffix.

Quote growth reported for `COc1ccc([C@H]2[C@H](O)C(=O)N2c2cc(OC)c(OC)c(OC)c2)cc1F` please.
27

Quote growth reported for `C#C[C@]1(O)CC[C@H]2[C@@H]3CC=C4c5sc(-c6ccc(C)cc6)nc5CC[C@]4(C)[C@H]3CC[C@@]21C` please.
-68.1

Quote growth reported for COc1ccc(C2c3sc4c(C)cccc4c3Oc3nc(CC(=O)Nc4ccccc4)[nH]c(=O)c32)cc1 (stereo not given) please.
8.26

Quote growth reported for `O=S(=O)(NCCCNc1nccc(-n2cnc3ccccc32)n1)c1ccc(C(F)(F)F)cc1` please.
105

Quote growth reported for `Nc1nc(-c2cccc([N+](=O)[O-])c2)c(N=Nc2ccccc2)s1` please.
-16.3

Quote growth reported for `COc1cc(-c2nc(SC(C)C)n(C(C)C)c(=O)c2C#N)ccc1OCc1ccccc1` please.
91.1

Quote growth reported for `COc1cc(OC)c(S(N)(=O)=O)cc1C(C)=O` please.
121

Quote growth reported for CCNC(=O)N1CCc2cc(OC)c(OCCc3ccc(OC)c(N)c3)cc2C1c1cc(C)c(C)cc1C (stereo not given) please.
22.5

Quote growth reported for `Cc1ccc(NC(=O)CNc2cc(C(N)=O)cc(F)c2C)c(Cl)c1` please.
36.2

Quote growth reported for CCCn1cnc2c(c1=N)C(c1ccc(F)cc1)c1sc3c(C)cccc3c1O2 (stereo not given) please.
-39

Quote growth reported for `CN(C)C(=O)c1cc(-c2ccc3ncnc(NCc4ccccc4)c3c2)cnc1N` please.
-4.14

Quote growth reported for `O=C(CN1CCN(c2cc(=O)n(-c3ccccc3)c3ccccc23)CC1)Nc1ccc(F)cc1` please.
71.9

Quote growth reported for `CC(=O)c1ccc(Nc2nc(SCC(C)C)nc(-c3ccc(F)cc3)c2C#N)cc1` please.
118

Quote growth reported for CCNC(=O)N1CCc2cc(OC)c(OCCc3ccc(OC)c(N)c3)cc2C1c1ccc(C)cc1C (stereo not given) please.
7.54

Quote growth reported for `Cc1ccc(S(=O)(=O)NCCNc2nc(Nc3ccc(N4CCN(C)CC4)cc3)nc3ccsc23)cc1` please.
70

Quote growth reported for `CNC(=O)c1cc(Oc2ccc3nc(NC(=O)c4cccc(OC(F)(F)F)c4)sc3c2)ccn1` please.
-1.69

Quote growth reported for `CN(Cc1ccccc1)S(=O)(=O)/N=C1\NC(=O)NC1=C(Cl)Cl` please.
55.1

Quote growth reported for `Cc1ccc(-c2cc3nc(C(Cl)Cl)nc(-c4cccs4)n3n2)cc1` please.
40.5

Quote growth reported for `CNC(=O)c1cc(-n2ccc3cc(NC(=O)Nc4ccc(N5CCOCC5)c(C(F)(F)F)c4)ccc32)ccn1` please.
-27.5

Quote growth reported for `O=C(NNc1nc2cc(F)ccc2n2cccc12)c1ccncn1` please.
30.3

# credit: PubChem BioAssay (NCI)
